Origin of values: patent US7674819B2

Entries and their measured IC50 follow.
Molecular target: androgen receptor (Homo sapiens, UniProt P10275)
Sequence (P10275 1-920 Q868H): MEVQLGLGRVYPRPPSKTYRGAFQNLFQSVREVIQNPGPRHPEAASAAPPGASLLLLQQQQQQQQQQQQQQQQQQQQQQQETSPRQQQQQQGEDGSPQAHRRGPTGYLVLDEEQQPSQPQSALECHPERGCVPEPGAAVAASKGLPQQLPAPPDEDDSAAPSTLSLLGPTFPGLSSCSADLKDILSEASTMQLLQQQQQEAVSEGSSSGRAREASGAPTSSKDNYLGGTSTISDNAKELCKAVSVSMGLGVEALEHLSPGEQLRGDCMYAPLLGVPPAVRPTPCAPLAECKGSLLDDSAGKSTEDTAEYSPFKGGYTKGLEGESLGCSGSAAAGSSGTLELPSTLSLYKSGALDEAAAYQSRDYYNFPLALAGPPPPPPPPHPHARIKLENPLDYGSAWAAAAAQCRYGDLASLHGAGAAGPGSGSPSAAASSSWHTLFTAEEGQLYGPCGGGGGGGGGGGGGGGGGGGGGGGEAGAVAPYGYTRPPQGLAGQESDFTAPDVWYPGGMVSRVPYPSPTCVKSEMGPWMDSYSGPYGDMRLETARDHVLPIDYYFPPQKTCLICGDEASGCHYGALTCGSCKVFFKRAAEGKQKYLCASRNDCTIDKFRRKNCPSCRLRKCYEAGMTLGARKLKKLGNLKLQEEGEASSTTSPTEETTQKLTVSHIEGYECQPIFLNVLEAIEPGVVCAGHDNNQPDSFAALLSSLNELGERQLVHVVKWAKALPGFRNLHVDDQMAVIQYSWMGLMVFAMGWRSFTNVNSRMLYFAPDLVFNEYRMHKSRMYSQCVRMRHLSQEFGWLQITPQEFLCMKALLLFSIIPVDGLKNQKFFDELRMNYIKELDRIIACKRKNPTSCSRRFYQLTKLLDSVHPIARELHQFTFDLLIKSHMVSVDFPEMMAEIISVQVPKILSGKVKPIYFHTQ
Assay: AR Antagonist Cell Assay (MDA-MB453-MMTV clone 54-19, luciferase reporter)
Type: cell-based
Conditions: inhibition of induction by DHT (final concentration at 100 μM), 17 hr; compound 0.32-1000 nM; mean of multiple tests; read-out: IC50
The response must be a number in nM with no trailing unit.

Recorded IC50, per entry:
{"COMPOUND": "Cc1ccc(-c2nnc(CN3CC(C)(C)C(Oc4ccc(C#N)c(C(F)(F)F)c4)C3=O)o2)s1 (stereo not drawn)", "IC50 / nM": 117}
{"COMPOUND": "CC(c1ccccc1)N1CC(C)(C)C(Oc2ccc(C#N)cc2Cl)C1=O (stereo not drawn)", "IC50 / nM": 14}
{"COMPOUND": "CC1(C)CN(S(=O)(=O)C2CC2)C(=O)C1Oc1ccc(C#N)c(C(F)(F)F)c1 (stereo not drawn)", "IC50 / nM": 205}

I am curious: what IC50 value has been reported for CC1(C)CN(S(C)(=O)=O)C(=O)C1Oc1ccc(C#N)c(C(F)(F)F)c1 (stereo not drawn) ?
199

I am curious: what IC50 value has been reported for CC1(C)CN(C(=O)Cc2ccccc2)C(=O)C1Oc1ccc(C#N)c(C(F)(F)F)c1 (stereo not drawn) ?
83

* * *

Entries and their measured pIC50 follow.
target: hAR (Homo sapiens); assay: Competitive binding of 3H-DHT to baculovirus/Sf9 generated hAR extracts; settings: IC50, concentration at which one half of maximum binding of 1 nM 3H-DHT to hAR is inhibited; one hour at 4° C.; mean of multiple tests
# pIC50: negative log10 of molar concentration; output just the value

{"MOLECULE": "CC1(C)CN(Cc2ccccc2)C(=O)C1Oc1ccc(C#N)c(C(F)(F)F)c1 (single isomer, unassigned; (+)) [Example 6]", "READOUT KIND": "pIC50", "QUANTITATIVE READOUT": 7.51}
{"MOLECULE": "CC(c1cccc(O)c1)N1CC(C)(C)C(Oc2ccc(C#N)c(C(F)(F)F)c2)C1=O (single isomer, unassigned; (+))", "READOUT KIND": "pIC50", "QUANTITATIVE READOUT": 8.00}
{"MOLECULE": "CCOC(=O)c1ccc(CN2CC(C)(C)C(Oc3ccc(C#N)c(C(F)(F)F)c3)C2=O)o1 (stereo not shown)", "READOUT KIND": "pIC50", "QUANTITATIVE READOUT": 6.92}
{"MOLECULE": "CCCCN1CC(C)(C)C(Oc2ccc(C#N)c(C(F)(F)F)c2)C1=O (stereo not shown) [Example 19]", "READOUT KIND": "pIC50", "QUANTITATIVE READOUT": 6.82}

I am curious: what pIC50 value has been reported for COC(=O)c1cccc(CN2CC(C)(C)C(Oc3ccc(C#N)c(C(F)(F)F)c3)C2=O)c1 (racemic) ?
7.32

I am curious: what pIC50 value has been reported for CC1(C)CN(S(=O)(=O)C2CC2)C(=O)C1Oc1ccc(C#N)c(C(F)(F)F)c1 (stereo not shown) [Example 83] ?
7.30

I am curious: what pIC50 value has been reported for COc1cc(OC2C(=O)N(C(C)c3ccccc3)CC2(C)C)ccc1C#N (stereo not shown) ?
7.06

* * *

Biological target: hAR (Homo sapiens, UniProt P10275)
Sequence (P10275 1-920): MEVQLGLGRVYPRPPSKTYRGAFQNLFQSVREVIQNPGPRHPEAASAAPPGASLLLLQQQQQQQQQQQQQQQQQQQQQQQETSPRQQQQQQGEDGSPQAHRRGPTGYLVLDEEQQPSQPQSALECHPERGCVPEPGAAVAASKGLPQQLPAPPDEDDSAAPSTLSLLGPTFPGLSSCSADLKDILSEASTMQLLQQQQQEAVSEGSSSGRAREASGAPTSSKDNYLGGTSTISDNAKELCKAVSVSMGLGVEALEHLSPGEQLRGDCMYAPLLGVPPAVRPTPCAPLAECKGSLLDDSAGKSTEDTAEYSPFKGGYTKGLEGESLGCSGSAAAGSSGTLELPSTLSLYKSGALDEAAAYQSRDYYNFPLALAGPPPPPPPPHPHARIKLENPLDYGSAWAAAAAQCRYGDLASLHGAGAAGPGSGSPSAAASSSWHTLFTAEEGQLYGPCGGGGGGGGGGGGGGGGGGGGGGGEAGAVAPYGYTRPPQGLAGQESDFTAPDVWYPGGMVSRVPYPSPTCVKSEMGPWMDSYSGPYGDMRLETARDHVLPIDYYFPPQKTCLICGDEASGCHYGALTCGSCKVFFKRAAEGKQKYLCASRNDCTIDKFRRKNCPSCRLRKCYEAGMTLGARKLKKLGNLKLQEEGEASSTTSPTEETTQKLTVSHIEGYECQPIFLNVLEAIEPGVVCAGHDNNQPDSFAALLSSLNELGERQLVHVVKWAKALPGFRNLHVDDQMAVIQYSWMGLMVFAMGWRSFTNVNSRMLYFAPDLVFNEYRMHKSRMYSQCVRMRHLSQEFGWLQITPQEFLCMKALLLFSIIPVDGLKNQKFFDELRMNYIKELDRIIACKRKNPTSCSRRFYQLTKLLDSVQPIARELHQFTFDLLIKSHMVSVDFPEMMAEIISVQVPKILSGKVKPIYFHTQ
Assay: Competitive binding of 3H-DHT to baculovirus/Sf9 generated hAR extracts
Settings: IC50, concentration at which one half of maximum binding of 1 nM 3H-DHT to hAR is inhibited; one hour at 4° C.; mean of multiple tests
Entries and their measured IC50 follow.
The response must be a number in µM with no trailing unit.

Recorded IC50, per entry:
{"MOLECULE": "CCCC(C)N1CC(C)(C)C(Oc2ccc(C#N)c(C(F)(F)F)c2)C1=O (racemic) [Example 72]", "IC50, µM": 0.203}
{"MOLECULE": "COC(=O)c1csc(CN2CC(C)(C)C(Oc3ccc(C#N)c(C(F)(F)F)c3)C2=O)n1 (stereo not shown) [Example 30]", "IC50, µM": 0.215}
{"MOLECULE": "CC1(C)CNC(=O)C1Oc1ccc(C#N)c(C(F)(F)F)c1 (single isomer, unassigned; (+)) [Example 3]", "IC50, µM": 0.435}
{"MOLECULE": "Cc1ccc(-c2nnc(C(C)N3CC(C)(C)C(Oc4ccc(C#N)c(C(F)(F)F)c4)C3=O)o2)cc1 (stereo not shown) [Example 129]", "IC50, µM": 0.063}
{"MOLECULE": "C[C@@H](c1ccc(F)cc1)N1CC(C)(C)[C@@H](Oc2ccc(C#N)c(C(F)(F)F)c2)C1=O (racemic) [Example 70]", "IC50, µM": 0.052}

I am curious: what IC50 value has been reported for CC1(C)CN(Cc2nnc(-c3ccc(O)cc3O)o2)C(=O)C1Oc1ccc(C#N)c(C(F)(F)F)c1 (stereo not shown) [Example 123] ?
0.061

I am curious: what IC50 value has been reported for CC1(C)CN(C(=O)c2cccc(C#N)c2)C(=O)C1Oc1ccc(C#N)c(C(F)(F)F)c1 (stereo not shown) [Example 107] ?
0.068
